# test: A quantitative high throughput screen for small molecules that induce DNA re-replication in MCF 10a normal breast cells. Also: nearly all actives have a fitted effect of over 50% in size. Also: potency is read from the fitted curve at half-maximal effect.
# test-parameters: MCF 10A DNA re-replication, Hoechst nuclear intensity, 48 h; series mostly up to 46.1 µM
Out of some 350,000 compounds screened, about 9,900 (2.8%) were called active. Roughly 15% stayed inconclusive and do not appear here. The sample as a whole holds a higher share of actives than the screen did.
property: Potency

Examples with their reported Potency follow.
[
  {
    "smiles-string": "O=C1N[C@H](Cc2c[nH]c3ccccc23)COC(=O)[C@H](Cc2ccc(F)cc2)C/C=C\\C[C@H]1CC(=O)N(CCO)Cc1ccccc1",
    "Potency": "inactive"
  },
  {
    "smiles-string": "COc1ccc(CNc2ncnc3ccccc23)cc1",
    "Potency": "inactive"
  },
  {
    "smiles-string": "CN(CC(=O)NCCc1ccc(S(N)(=O)=O)cc1)CC(=O)Nc1ccc(Cl)cc1",
    "Potency": "inactive"
  },
  {
    "smiles-string": "COc1ccc(CC(=O)NCC(=O)N/N=C/c2cc(Br)ccc2OC)cc1",
    "Potency": "inactive"
  }
]

Consider the compound COc1ccc(CNc2nnnn2C)cc1 and give its recorded Potency.
inactive

---

# test: A quantitative high throughput screen for small molecules that induce DNA re-replication in MCF 10a normal breast cells. Also: nearly all actives have a fitted effect of over 50% in size.
# test-parameters: MCF 10A DNA re-replication, Hoechst nuclear intensity, 48 h; series mostly up to 46.1 µM
# Text: H Molecular Libraries Probe Production Network [MLPCN] NIH Chemical Genomics Center [NCGC] Assay Provider: Melvin DePamphilis, NICHD, NIH Eukaryotic cells normally restrict genome duplication to once per cell division. […] To identify compounds that induce re-replication in normal cells, an image-based assay was used to measure DNA content of nuclei, as detected by the fluorescent DNA binding dye, Hoechst. […]
Out of some 350,000 compounds screened, about 9,900 (2.8%) were called active. Another 15% or so got no clear call; they are omitted. The call rests on the fitted dose curve; in most records, active means well fitted activation curve with a large enough effect; inconclusive means small, poorly fitted or top-dose-only effect; inactive means no such curve, though single readings can be large or run the other way. Only a selection was taken, and actives are over-represented in it overall.
Your answer must be one of the following: active, inactive

[
  {
    "compound": "COc1cc(C(=O)NCC2(c3ccccc3)CCCC2)ccc1OC(C)C",
    "cat": "inactive"
  },
  {
    "compound": "COc1cc(/C=C/CNC[C@H]2O[C@@H](n3cnc(C(N)=O)n3)[C@H](O)[C@@H]2O)ccc1O",
    "cat": "inactive"
  },
  {
    "compound": "CC(C)(C)c1nnc2sc(SCC(O)=C(C#N)c3nc4ccccc4[nH]3)nn2c1=O",
    "cat": "inactive"
  },
  {
    "compound": "O=C(CCCOc1ccccc1)NNC(=O)c1ccc(Cl)cc1",
    "cat": "inactive"
  },
  {
    "compound": "CCOC(=O)N1CCN(CC(=O)c2c(C)[nH]c3ccccc23)CC1",
    "cat": "inactive"
  }
]

What outcome does the record of this test show for COc1cc(NC(=O)c2cccnc2SC)cc(OC)c1 ?
inactive

What outcome does the record of this test show for CCOC(=O)c1c(C)[nH]c(C)c1S(=O)(=O)N(C)CC(=O)Nc1ccccc1C ?
inactive

What outcome does the record of this test show for CSc1nc2ccccc2c(=O)n1Cc1ccc(F)cc1 ?
inactive

What outcome does the record of this test show for O=C(COC(=O)c1n[nH]c2ccccc12)Nc1ccccc1Br ?
inactive

---

# test: A quantitative high throughput screen for small molecules that induce DNA re-replication in MCF 10a normal breast cells. Also: nearly all actives have a fitted effect of over 50% in size.
# test-parameters: MCF 10A DNA re-replication, Hoechst nuclear intensity, 48 h; series mostly up to 46.1 µM
Screen size: about 350,000 compounds; about 9,900 (2.8%) were called active. About 15% were inconclusive and are not listed. The call rests on the fitted dose curve; in most records, active means well fitted activation curve with a large enough effect; inconclusive means small, poorly fitted or top-dose-only effect; inactive means no such curve, though single readings can be large or run the other way. Only a selection was taken, and actives are over-represented in it overall.
Your answer must be one of the following: active, inactive

[
  {
    "compound": "COc1ccc(-c2csc(NC(=O)COC(=O)c3ccc(Br)o3)n2)cc1",
    "cat": "inactive"
  },
  {
    "compound": "COc1cc2ccccc2cc1C(=O)Nc1ccc(NC(=O)c2cccs2)cc1",
    "cat": "inactive"
  },
  {
    "compound": "COc1ccc2c(c1OC)C(=O)OC2Nc1nc(-c2ccccc2)cs1 (stereo not given)",
    "cat": "active"
  },
  {
    "compound": "Cc1ccc(OCC(=O)Nc2ccc(NC(=O)c3cccs3)cc2)c(C)c1",
    "cat": "active"
  },
  {
    "compound": "Cn1c(=O)c2c(nc(SCC(=O)Nc3ccccc3N3CCCCC3)n2C)n(C)c1=O",
    "cat": "inactive"
  },
  {
    "compound": "COc1ccc(-c2csc(NC3OC(=O)c4ccccc43)n2)cc1 (stereo not given)",
    "cat": "active"
  },
  {
    "compound": "CC(=O)c1ccc(N2CCN(C(=O)c3ccc(Cl)c(S(=O)(=O)NC4CC4)c3)CC2)c(F)c1",
    "cat": "inactive"
  },
  {
    "compound": "O=C1CC(c2ccccc2)C(c2ccccc2)=NN1 (stereo not given)",
    "cat": "inactive"
  }
]

What outcome does the record of this test show for COc1ccc(N/C=C(\C2OC(=O)c3ccccc32)[N+](=O)[O-])cc1 (stereo not given) ?
inactive

What outcome does the record of this test show for Cc1ccc(-c2nnc(-c3ccc(NC(=O)c4cccs4)cc3)o2)cc1 ?
inactive

---

# test: A quantitative high throughput screen for small molecules that induce DNA re-replication in MCF 10a normal breast cells. Also: nearly all actives have a fitted effect of over 50% in size.
# test-parameters: MCF 10A DNA re-replication, Hoechst nuclear intensity, 48 h; series mostly up to 46.1 µM
Among all 350,000 compounds or so, about 9,900 (2.8%) were called active. Not shown: some 15% with an inconclusive outcome. Calls follow the shape of the dose curve; as a rule, active = well fitted activation curve with a large enough effect; inconclusive = small, poorly fitted or top-dose-only effect; inactive = no such curve, though single readings can be large or run the other way. Many of the other results were omitted from the sample, so actives are more common in it than they were.
Your answer must be one of the following: label 1 (active), label 0 (inactive)

[
  {
    "compound": "CC(=O)Nc1ccc(NC(=O)CCCNC(=O)c2ccc(Cl)cc2)cc1",
    "cat": "label 0"
  }
]

What outcome does the record of this test show for COc1ccc(NC(=O)COC(=O)c2n[nH]c3ccccc23)c(OC)c1 ?
label 0

What outcome does the record of this test show for CCOc1ccccc1Nc1nnc(SCc2ccc(C(=O)OC)o2)s1 ?
label 1

What outcome does the record of this test show for COc1ccccc1C(=O)N(C1=NC(C)CS1)c1ccc(Cl)cc1 (stereo unspecified) ?
label 0

---

# test: A quantitative high throughput screen for small molecules that induce DNA re-replication in MCF 10a normal breast cells. Also: nearly all actives have a fitted effect of over 50% in size.
# test-parameters: MCF 10A DNA re-replication, Hoechst nuclear intensity, 48 h; series mostly up to 46.1 µM
Screen size: about 350,000 compounds; about 9,900 (2.8%) were called active. Inconclusive results (about 15%) are left out. Calls come from the whole dose curve; as a rule, active = well fitted activation curve with a large enough effect; inconclusive = small, poorly fitted or top-dose-only effect; inactive = no such curve, though single readings can be large or run the other way. The entries come from a sample that favours actives as a whole.
Your answer must be one of the following: y for active, n for inactive

# example entries with known answers
[
  {
    "molecule": "CC(C)CCSc1ncnc2c1oc1nc3c(cc12)COC(C)(C)C3",
    "cat": "y"
  },
  {
    "molecule": "CC(=O)N1CCc2c(sc(NC(=O)CCS(=O)(=O)c3ccc(C)cc3)c2C(N)=O)C1",
    "cat": "y"
  },
  {
    "molecule": "CCCCn1c(=O)c(C(C)=O)c(O)c2ccccc21",
    "cat": "n"
  }
]

What outcome does the record of this test show for CC(C)(C)OC(=O)N[C@H](C(=O)OC(C)(C)C)c1ccc(Br)cc1 ?
n

What outcome does the record of this test show for CC[C@]12c3[nH]c4ccc(Cl)cc4c3CCN1C(=O)[C@@H](CC(=O)NCCCOC)C[C@@H]2C(=O)N1CCN(C(=O)C2CC2)CC1 ?
n

What outcome does the record of this test show for Cc1cc(C)cc(-c2nnc(SCC(=O)NC3CC3)o2)c1 ?
n

What outcome does the record of this test show for CCCCN(CCCC)CC(O)Cn1c2ccccc2c(=O)c2ccccc21 (stereo not drawn) ?
y

What outcome does the record of this test show for Cc1nnc(N/N=C/c2ccccn2)[nH]c1=O ?
y

What outcome does the record of this test show for O=C(CSc1nc2ccccc2c(=O)n1-c1ccccc1F)N1CCOCC1 ?
n

---

# test: A quantitative high throughput screen for small molecules that induce DNA re-replication in MCF 10a normal breast cells. Also: nearly all actives have a fitted effect of over 50% in size.
# test-parameters: MCF 10A DNA re-replication, Hoechst nuclear intensity, 48 h; series mostly up to 46.1 µM
In all, about 350,000 compounds went through this assay and about 9,900 (2.8%) were called active. Inconclusive results (about 15%) are left out. Calls come from the whole dose curve; as a rule, active = well fitted activation curve with a large enough effect; inconclusive = small, poorly fitted or top-dose-only effect; inactive = no such curve, though single readings can be large or run the other way. The list comes from a sample in which actives are over-represented; it also holds close analogues and randomly drawn compounds.
Your answer must be one of the following: 1 (yes) = active, 0 (no) = inactive

# example entries with known answers
[
  {
    "compound": "CCCCNc1nc2c(c(=O)n(C)c(=O)n2C)n1Cc1cccc(OC)c1",
    "cat": "0 (no)"
  },
  {
    "compound": "COc1ccc(-c2csc(Nc3ccccn3)n2)cc1",
    "cat": "0 (no)"
  },
  {
    "compound": "COc1ccc(OC)c(Nc2nc(-c3ccc(O)c(O)c3)cs2)c1",
    "cat": "1 (yes)"
  },
  {
    "compound": "Cc1ccc(NC(=O)N2CCC(c3nc4c(nnn4Cc4c(F)cccc4Cl)c(=O)[nH]3)CC2)cc1",
    "cat": "0 (no)"
  },
  {
    "compound": "C[C@H](CO)N1C[C@H](C)[C@H](CN(C)C(=O)Nc2ccc(C(F)(F)F)cc2)Oc2c(NC(=O)c3ccncc3)cccc2C1=O",
    "cat": "0 (no)"
  }
]

Now, please, on to the next compound.
What outcome does the record of this test show for Cc1ccc(C(=O)NNC(=O)c2ccc3c(c2)OCCO3)cc1 ?
0 (no)
